// data source = patent US20240076272A1

- Test system: human melanoma CRL-2813 cells
- method.summary: sulforhodamine B (SRB) cell proliferation assay
- Format: cell-based
- run.conditions: Homo sapiens, CRL2813, 120 h, 5 days, read-out: IC50 (concentration that inhibits growth of human melanoma CRL-2813 cells by 50%)
measurement.label: pIC50
Just the number, please; pIC50 means minus log10 of the concentration in mol/L.

Ask: Query: pIC50; subject: N#Cc1cc(NC(=O)N[C@H]2C[C@@H](Oc3ccc(C(F)(F)F)cc3)C2)cc(C(F)(F)F)c1 [Compound 1-IVc]
Reply: 6.05

Ask: Fill in the blank: the reported pIC50 of N#Cc1ccc(NC(=O)N[C@H]2CC[C@H](Oc3ccc(C(F)(F)F)cc3)CC2)c(F)c1 [Compound 8-VI] is ____.
Reply: 5.85

Ask: If you can, please state the reported pIC50 value of O=C(Nc1cccc(C(F)(F)F)c1)N[C@H]1C[C@H](Oc2ccc(C(F)(F)F)cc2)C1 [Compound 2-IV] .
Reply: 5.47

Ask: Given the entry N#Cc1cc(NC(=O)N[C@H]2C[C@H](Oc3ccc(C(F)(F)F)cc3)C2)cc(C(F)(F)F)c1 [Compound 1-IV] , report its measured pIC50.
Reply: 6.05

Ask: Need pIC50, item N#Cc1cccc(NC(=O)N[C@H]2C[C@H](Oc3ccc(C(F)(F)F)cc3)C2)c1 [Compound 3-IV]
Reply: 5.31

Ask: Which pIC50 value is on record for N#Cc1cc(F)cc(NC(=O)N[C@H]2C[C@H](Oc3ccc(C(F)(F)F)cc3)C2)c1 [Compound 4-IV] ?
Reply: 5.55
